test system: MT-4 cells; assay: Cytotoxicity in MT-4 cells, MTT; assay type: cell-based, human; details: viability of MT-4 cells, MTT assay
attribute_measured: CC50

### Prompt Tell me CC50 reported for N=C(N)NCCCC(N)C(=O)NCC1OC(OC2C(NC(=O)C(N)CCCNC(=N)N)CC(NC(=O)C(N)CCCNC(=N)N)C(OC3OC(CO)C(O)C(NC(=O)C(N)CCCNC(=N)N)C3O)C2O)C(O)C(O)C1O (stereo not shown) [R4K, Tetraargininamido-kanamycin A conjugate]
### Response > 1130 µM

###

biological target: Tat-TAR interaction; assay: Gel-shift inhibition of Tat R52 peptide binding to TAR RNA; design: species or system HIV-1; settings: TAR RNA 6 nM; 60 nM Tat R52; read-out: CI50 (the source's name)
attribute_measured: log10(IC50) (log10 of the value in mM)
Heads up, the numbers here are log10 of IC50 in mM units.

>  <compound>
COC1OC(CNC(=O)C(N)CCCNC(=N)N)C(O)C(O)C1O (stereo not shown)

>  <quantitative_readout>
0.26

$$$$
>  <compound>
CO[C@H]1O[C@H](CN)[C@@H](O)[C@H](O)[C@@H]1O

>  <quantitative_readout>
1.75

$$$$
>  <compound>
CO[C@@H]1O[C@H](CNC(C)=N)C(O)[C@H](O)[C@@H]1O (stereo partly shown)

>  <quantitative_readout>
1.04

$$$$
>  <compound>
Cl.N=C(N)NCCC[C@H](N)C(=O)O [Arginine HCl, reference compound]

>  <quantitative_readout>
1.58

$$$$
>  <compound>
CO[C@H]1O[C@H](CNC(=N)N)[C@@H](O)[C@H](O)[C@@H]1O

>  <quantitative_readout>
0.95

$$$$

Here is another compound to look at.
### Prompt Tell me log10(IC50) reported for "CO[C@H]1O[C@H](CC#N)[C@@H](O)[C@H](O)[C@@H]1O"
### Response 1.66
